Several reports have described pKi for Orexin/Hypocretin receptor type 1 (Homo sapiens, UniProt O43613); a selection of those results is presented here.
pKi: −log10 of the molar value.
value.kind: pKi

Reference set (3 entries):
* C[C@@H]1CC[C@@H](Oc2cc(Br)ccn2)CN1C(=O)c1ccccc1-n1nccn1 | 6.89
* Cc1cc(C)cc(-c2cnc(-c3cccnc3)c(C(=O)NCc3ccc(N(C)C)cc3)c2)c1 | 6.08
* Cc1ccc(-n2nccn2)c(C(=O)N2C[C@H](C#Cc3cccc(CO)n3)CC[C@H]2C)c1 | 7.74

A: COc1ccnc(O[C@@H]2CC[C@@H](C)N(C(=O)c3ccccc3-n3nccn3)C2)c1
B: Cn1c(CCC(=O)N2CCC[C@H]2C(=O)Nc2ccccc2-n2cccc2)nc2ccccc21
C: COc1ccccc1-c1ccccc1NC(=O)[C@@H]1CCCN1C(=O)CCc1nc2ccccc2[nH]1
D: Cc1ccc(-n2nccn2)c(C(=O)N2C[C@H](C#Cc3ccncc3)CC[C@H]2C)c1
E: COc1ccc(C[C@H]2c3cc(OC)c(OC)cc3CCN2[C@@H](C(=O)NC(C)C)c2ccccc2)cc1OC
Ranking field: pKi; order: falling. Ranked list of labels, please, in the requested order. E, D, B, C, A
(E: 8.22, D: 7.59, B: 7.31, C: 7.07, A: 6.85)

###

- tested.on: Orexin/Hypocretin receptor type 1 (Homo sapiens, UniProt O43613)
- Sequence (O43613 whole entry): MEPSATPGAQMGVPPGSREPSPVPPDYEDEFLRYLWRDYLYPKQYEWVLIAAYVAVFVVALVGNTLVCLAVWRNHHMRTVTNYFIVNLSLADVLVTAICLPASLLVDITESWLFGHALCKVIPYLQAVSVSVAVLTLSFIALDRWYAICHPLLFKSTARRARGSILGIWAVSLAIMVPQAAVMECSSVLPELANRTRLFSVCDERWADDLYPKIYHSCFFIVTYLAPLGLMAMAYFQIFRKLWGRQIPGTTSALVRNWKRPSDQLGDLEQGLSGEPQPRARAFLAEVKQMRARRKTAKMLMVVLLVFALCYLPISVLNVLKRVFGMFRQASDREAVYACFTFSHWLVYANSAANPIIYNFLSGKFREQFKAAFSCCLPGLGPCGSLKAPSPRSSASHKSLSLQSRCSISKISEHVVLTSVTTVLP
pKi: −log10 of the molar value.
Please find below pKi data on Orexin/Hypocretin receptor type 1 (Homo sapiens, UniProt O43613) compiled from the literature.
value.kind: pKi

Solved entries:
* Cc1ccc(NC(=O)N[C@H]2COC(C)(C)O[C@H]2c2ccccc2)c(C)c1 | 6.90
* O=C(c1nccc2[nH]cnc12)N1CCC(F)(F)[C@@H](Oc2ccc3ccccc3n2)C1 | 8.28
* Cc1ccc(-n2nccn2)c(C(=O)N2C[C@H](/C=C/c3ccc(F)cn3)CC[C@H]2C)c1 | 7.77
* COc1ccc(OC[C@@]2(c3ccccc3)C[C@H]2C(=O)Nc2nc(C)cs2)cc1OC | 6.08
* Cc1ccc(-n2nccn2)c(C(=O)N2C[C@H](C#Cc3cccnc3O)CC[C@H]2C)c1 | 7.62

a: COc1cc(N2C(=O)N(Cc3c(F)cc(F)cc3F)c3ncccc3S2(=O)=O)cnc1OC
b: C[C@@H]1CC[C@@H](Oc2ccnc3c(F)cccc23)CN1C(=O)c1ccccc1-c1cccnc1
c: CSc1ccnc(O[C@@H]2CC[C@@H](C)N(C(=O)c3ccccc3-n3nccn3)C2)c1
d: COc1ccc(OC[C@@]2(c3ccccc3)C[C@H]2C(=O)N(C)c2ccccc2)cc1OC
Place the items in sequence of falling pKi. Hello, could you send the labels back in the order asked? Thank you. a, c, d, b
(a: 7.70, c: 7.41, d: 5.12, b: 4.72)
